A collection of compounds and their measured T/C
Test system: CD2F1 mice, L1210 leukemia ip, survival T/C
assayMethodText: NCI In Vivo Anticancer Drug Screen. Data for tumor model L1210 Leukemia (intraperitoneal) in CD2F1 (CDF1) mice
runConditions: endpoint: mean survival time; dose: 200.0 mg/kg/injection; schedule: Q01DX001 (ip); vehicle: saline; higher = longer survival
Toxic doses and inconclusive results are not listed.

The following compounds have reported results that may help.
[[record]]
compound = "[Se]=[P+](OC1CCCCC1)OC1CCCCC1"
testedon = "CD2F1 mice, L1210 leukemia ip, survival T/C"
result = "92 % of control"

[[record]]
compound = "OCC(O)C1OC(OC2CCCCC2)C(O)C(O)C1O (configuration not stated)"
testedon = "CD2F1 mice, L1210 leukemia ip, survival T/C"
result = "101 % of control"

[[record]]
compound = "CCC(C)CCCOC(=O)c1c(Cl)c(Cl)c(Cl)c(Cl)c1C(=O)O (configuration not stated)"
testedon = "CD2F1 mice, L1210 leukemia ip, survival T/C"
result = "112 % of control"

[[record]]
compound = "O=P(OCCCl)(OCCCl)C(Cl)Cl"
testedon = "CD2F1 mice, L1210 leukemia ip, survival T/C"
result = "100 % of control"

[[record]]
compound = "C(=N\\C(/N=C/c1ccccc1)c1ccccc1)/c1ccccc1"
testedon = "CD2F1 mice, L1210 leukemia ip, survival T/C"
result = "103 % of control"


Can you look up the measured T/C of CC(=O)NCCc1ccc2c(c1)[nH]c1ccccc12 for me?
100 % of control

Please do the same for CCCN(CCC)S(=O)(=O)c1ccc(NC(=O)OC2CCCCCCC2)cc1 as well.
98 % of control

Another compound: Nc1ncnc2c1ncn2CC(N)C(=O)O (configuration not stated)
107 % of control

Next up: Cc1cc(O)c2c(c1O)C(=O)c1c(O)ccc(O)c1C2=O
95 % of control

Let us now turn to O=C(CBr)c1cc(-c2ccccc2)nc2c(Cl)cc(Cl)cc12
103 % of control

Similarly, C=CCC1(C)C(=O)CCC2=C1CCc1c(OC)cccc12 (configuration not stated) ?
90 % of control

Would you kindly repeat that for O=P(O)(O)Cc1ccccc1-c1ccccc1 ?
94 % of control

---

# Lookup of reported T/C keyed by entry
Test system: CD2F1 mice, L1210 leukemia ip, survival T/C
assayMethodText: NCI In Vivo Anticancer Drug Screen. Data for tumor model L1210 Leukemia (intraperitoneal) in CD2F1 (CDF1) mice
runConditions: endpoint: mean survival time; dose: 100.0 mg/kg/injection; schedule: Q04DX002 (ip); vehicle: saline; higher = longer survival
Toxic doses and inconclusive results are not listed.

Answered cases to consult:
[[record]]
compound = "OCC(O)C(O)C(O)C(O)C(O)CO (stereo not drawn)"
result = "100 % of control"

[[record]]
compound = "COC(=O)c1cc(NC(=O)Nc2cc([N+](=O)[O-])ccc2Cl)cc(C(=O)OC)c1"
result = "96 % of control"

[[record]]
compound = "CN(C)CCCNC(=O)c1ccc(N)cc1"
result = "102 % of control"

[[record]]
compound = "N.N.N.N.N.N#CN=C(N)N.[Co+3].[O-][Cl+3]([O-])([O-])[O-]"
result = "101 % of control"

[[record]]
compound = "CCC(C(=N)C#N)[N+](=O)[O-] (stereo not drawn)"
result = "91 % of control"


// map Cc1cccc(CN=C(N)CCl)n1 to recorded T/C (system: CD2F1 mice, L1210 leukemia ip, survival T/C)
111 % of control

Now this one: CN(C)CCCN=C(N)CSP(=O)(O)O
102 % of control

How about COc1cc2c(cc1O)-c1cc3ccc(OC)c(OC)c3c[n+]1CC2 ?
104 % of control
